All figures here come from patent US20050196403A1.

# Target Entity: HLA-B*0702 (Human)
# Experiment Summary: competition vs 125I probe, purified HLA
Quantity Measured: log10 IC50 (log10 of the value in nM)
Note the log scale: values are log10 of IC50 expressed in nM.

Some entries whose results are on file:
FPQPKKKPI [48.0127 FPQPKKKPI (p53)] : -0.21
FPGTRVRAI [48.0123 FPGTRVRAI (p53.152.F1)] : 0.04

Batch lookup, log10 IC50 per entry.
1. FPQPKKKPL [48.0128 FPQPKKKPL (p53)]
2. FPALNKMF [48.0055 FPALNKMF (p53.127.F1)]
3. FPALNKMFCQL [48.0234 FPALNKMFCQL (p53.127.F1)]

1. 0.36
2. -1.60
3. -1.28

The recorded log10 IC50 for FPPGSTKRAL [48.0196 FPPGSTKRAL (p53)] is -0.10
